# conditionContext: siRNA; further: test system not given here
HELM strings list units from the 5' end as sugar, base in round brackets, then linkage (d deoxyribose, r ribose, m 2'-O-methyl, p phosphodiester). Strings are as the collection lists them, not checked against the first reports. ss, as = sense and antisense strand; [fl2r] = 2'-fluoro
measuredMetric: target mRNA knockdown (%)

[[record]]
substance = "RNA1{r(C)p.r(U)p.r(C)p.r(U)p.r(C)p.r(C)p.r(U)p.[fl2r](A)p.r(C)p.r(C)p.r(U)p.r(U)p.r(C)p.r(U)p.r(C)p.r(C)p.r(U)p.r(C)p.r(U)p.r(T)p.r(T)}|RNA2{r(A)p.r(G)p.r(A)p.r(G)p.r(G)p.r(A)p.r(G)p.r(A)p.r(A)p.r(G)p.r(G)p.r(U)p.r(A)p.r(G)p.r(G)p.r(A)p.r(G)p.r(A)p.r(G)p.r(T)p.r(T)}$$$RNA1{StrandType:ss}|RNA2{StrandType:as}$"
recordedvalue = 78

[[record]]
substance = "RNA1{r(C)p.r(U)p.[fl2r](A)p.[fl2r](A)p.r(G)p.r(C)p.r(C)p.r(U)p.r(G)p.[fl2r](U)p.r(U)p.r(U)p.r(C)p.r(U)p.r(U)p.r(C)p.r(C)p.r(U)p.r(C)p.r(T)p.r(T)}|RNA2{r(G)p.r(A)p.r(G)p.r(G)p.r(A)p.r(A)p.r(G)p.r(A)p.r(A)p.r(A)p.r(C)p.r(A)p.r(G)p.r(G)p.r(C)p.r(U)p.[fl2r](U)p.r(A)p.r(G)p.r(T)p.r(T)}$$$RNA1{StrandType:ss}|RNA2{StrandType:as}$"
recordedvalue = 85

[[record]]
substance = "RNA1{r(G)p.r(C)p.r(U)p.r(U)p.m(U)p.r(A)p.r(A)p.r(G)p.r(G)p.r(A)p.r(A)p.r(C)p.m(U)p.r(G)p.r(G)p.r(A)p.r(A)p.r(G)p.r(G)p.r(T)p.r(T)}|RNA2{r(C)p.r(C)p.r(U)p.r(U)p.r(C)p.m(C)p.r(A)p.r(G)p.r(U)p.r(U)p.r(C)p.r(C)p.r(U)p.m(U)p.r(A)p.r(A)p.r(A)p.r(G)p.r(C)p.r(T)p.r(T)}$$$RNA1{StrandType:ss}|RNA2{StrandType:as}$"
recordedvalue = 37


###

# conditionContext: siRNA
HELM strings list units from the 5' end as sugar, base in round brackets, then linkage (d deoxyribose, r ribose, m 2'-O-methyl, p phosphodiester). Strings are as the collection lists them, not checked against the first reports. ss, as = sense and antisense strand; [s4r] = 4'-thioribose
measuredMetric: target mRNA knockdown

[[record]]
substance = "RNA1{[s4r](A)p.[s4r](A)p.[s4r](A)p.[s4r](C)p.r(A)p.r(U)p.r(G)p.r(C)p.r(A)p.r(G)p.r(A)p.r(A)p.r(A)p.r(A)p.r(U)p.[s4r](G)p.[s4r](C)p.[s4r](C)p.[s4r](U)p.r(T)p.r(T)}|RNA2{r(C)p.r(A)p.r(G)p.r(C)p.r(A)p.r(U)p.r(U)p.r(U)p.r(U)p.r(C)p.r(U)p.r(G)p.r(C)p.r(A)p.r(U)p.[s4r](G)p.[s4r](U)p.[s4r](U)p.[s4r](U)p.r(T)p.r(T)}$$$RNA1{StrandType:ss}|RNA2{StrandType:as}$"
recordedvalue = "87.3%"

[[record]]
substance = "RNA1{r(U)p.r(C)p.m(U)p.r(A)p.m(C)p.r(A)p.r(C)p.r(C)p.r(G)p.m(C)p.r(G)p.r(C)p.m(C)p.r(C)p.r(C)p.r(C)p.r(C)p.r(U)p.r(C)p.r(T)p.r(T)}|RNA2{r(G)p.r(A)p.r(G)p.r(G)p.r(G)p.r(G)p.r(G)p.r(G)p.r(C)p.r(G)p.r(C)p.r(G)p.r(G)p.m(U)p.r(G)p.m(U)p.r(A)p.r(G)p.r(A)p.r(T)p.r(T)}$$$RNA1{StrandType:ss}|RNA2{StrandType:as}$"
recordedvalue = "73%"

